# experimental.target: CYP 2C9 (Homo sapiens)
# Sequence (P11712 whole entry): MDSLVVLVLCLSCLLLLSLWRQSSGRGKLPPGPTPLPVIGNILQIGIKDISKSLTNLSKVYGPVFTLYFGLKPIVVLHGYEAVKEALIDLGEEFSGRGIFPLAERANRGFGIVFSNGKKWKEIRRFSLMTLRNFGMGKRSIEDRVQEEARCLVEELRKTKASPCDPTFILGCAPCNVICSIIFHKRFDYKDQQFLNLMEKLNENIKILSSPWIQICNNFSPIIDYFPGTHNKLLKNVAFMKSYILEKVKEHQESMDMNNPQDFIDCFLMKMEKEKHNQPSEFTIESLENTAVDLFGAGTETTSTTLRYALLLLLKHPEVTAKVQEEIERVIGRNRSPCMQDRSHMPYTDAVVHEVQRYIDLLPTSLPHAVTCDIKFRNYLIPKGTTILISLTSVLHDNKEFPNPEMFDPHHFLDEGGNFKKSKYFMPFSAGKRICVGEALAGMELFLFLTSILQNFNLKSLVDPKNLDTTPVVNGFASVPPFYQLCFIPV
# experiment.notes: Inhibition of cytochrome P450 enzyme in human liver microsomes, CYP 2C9
Structures can show the parent of a compound that is named as a salt.
attribute.measured: IC50

compound	experimental.target	IC50
[2H]C([2H])([2H])N(C[C@@H]1CN(C(=O)Cc2cc(F)c(F)cc2F)CC[C@@]1(O)c1cccc(OC)c1)C([2H])([2H])[2H] [II-9hydrochloride]	CYP 2C9 (Homo sapiens)	> 50 µM

Fill in: IC50 of [2H]C([2H])([2H])N(C)C[C@@H]1CN(S(=O)(=O)Cc2ccccc2)CC[C@@]1(O)c1cccc(OC)c1 [II-1hydrochloride] is ___
> 50 µM

Fill in: IC50 of [2H]C([2H])([2H])Oc1cccc([C@]2(O)CCN(C(=O)Cc3cc(F)c(F)cc3F)C[C@H]2CN(C([2H])([2H])[2H])C([2H])([2H])[2H])c1 [II-11hydrochloride] is ___
> 50 µM
